readoutType: melting point

(Q) Which melting point value belongs to O=C1C=CC(=O)N1CCc1ccc([N+](=O)[O-])cc1 ?
(A) 61 to 63 °C

(Q) Entry under review: COc1cc(OC)c(C(C)=O)cc1Cl . Reported melting point?
(A) 134 to 136 °C

(Q) For the compound O=S(=O)(c1ccc(Cl)cc1)N1CCNCC1 , what melting point is on record?
(A) 99 to 103 °C

(Q) Consider the compound Cc1cc(NC(=O)C(C)SCC(=O)O)no1 (centres undefined) and give its measured melting point.
(A) 125 to 127 °C

(Q) Query: melting point; subject: Cc1csc(-c2cccc(C(=O)O)c2)n1
(A) 192 to 194 °C

(Q) What does the record list as melting point for CNC(c1ccc(Cl)cc1)c1cccnc1 (centres undefined) ?
(A) 44 to 46 °C

(Q) Could you share which melting point value was measured for Cc1ccc(NC(N)=O)cc1F ?
(A) 190 to 192 °C

(Q) // query melting point value for entry N#CC1CSCCN1 (centres undefined)
(A) 81 to 83 °C
